Where do the numbers come from? From paper PMC9911399.

# tested on: T1, RBFOX1 RRM (Homo sapiens, UniProt Q9NWB1 109-208)
# T1 sequence: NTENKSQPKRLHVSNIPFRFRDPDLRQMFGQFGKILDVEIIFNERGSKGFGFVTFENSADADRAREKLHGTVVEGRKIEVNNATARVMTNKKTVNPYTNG
# procedure summary: EMSA; HiTS-Eq, 1 nM pool, 10 min; buffer printed only for the single-RNA assays: 10 mM Tris pH 7.5, 150 mM NaCl, 3.4 mM EDTA, 0.001% NP-40, 30 C
# recorded conditions: tags: His6 N-terminal (pET28a); label: 5' 32P
In all, about 16,000 sequences were measured (“ka relative to ugcaugu”: median about 0.0091, highest 2% from about 0.032 on). For the sample, the highest values were picked, then their nearest neighbours and some sequences at random.

[
  {
    "binder": "CCCUACU (DNA:RNA) RNA: GGGAGACCGGAAUUCAGAUUGUCCCCCUACUUUAAAUCCCGUCGUAGCCACCA DNA 1: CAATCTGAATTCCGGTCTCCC DNA 2: TGGTGGCTACGACGGGATT",
    "binding signal": "0.00609 KA relative to UGCAUGU"
  },
  {
    "binder": "CCUAAUC (DNA:RNA) RNA: GGGAGACCGGAAUUCAGAUUGUCCCCUAAUCUUAAAUCCCGUCGUAGCCACCA DNA 1: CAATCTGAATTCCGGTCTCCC DNA 2: TGGTGGCTACGACGGGATT",
    "binding signal": "0.00151 KA relative to UGCAUGU"
  },
  {
    "binder": "AUGCAAU (DNA:RNA) RNA: GGGAGACCGGAAUUCAGAUUGUCCAUGCAAUUUAAAUCCCGUCGUAGCCACCA DNA 1: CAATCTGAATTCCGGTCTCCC DNA 2: TGGTGGCTACGACGGGATT",
    "binding signal": "0.00453 KA relative to UGCAUGU"
  },
  {
    "binder": "GGAAGCG (DNA:RNA) RNA: GGGAGACCGGAAUUCAGAUUGUCCGGAAGCGUUAAAUCCCGUCGUAGCCACCA DNA 1: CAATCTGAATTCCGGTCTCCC DNA 2: TGGTGGCTACGACGGGATT",
    "binding signal": "0.0177 KA relative to UGCAUGU"
  },
  {
    "binder": "CUUGAAA (DNA:RNA) RNA: GGGAGACCGGAAUUCAGAUUGUCCCUUGAAAUUAAAUCCCGUCGUAGCCACCA DNA 1: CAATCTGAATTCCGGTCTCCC DNA 2: TGGTGGCTACGACGGGATT",
    "binding signal": "0.00785 KA relative to UGCAUGU"
  },
  {
    "binder": "CCUGAUG (DNA:RNA) RNA: GGGAGACCGGAAUUCAGAUUGUCCCCUGAUGUUAAAUCCCGUCGUAGCCACCA DNA 1: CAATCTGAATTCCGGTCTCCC DNA 2: TGGTGGCTACGACGGGATT",
    "binding signal": "0.0205 KA relative to UGCAUGU"
  },
  {
    "binder": "GUCCCAA (DNA:RNA) RNA: GGGAGACCGGAAUUCAGAUUGUCCGUCCCAAUUAAAUCCCGUCGUAGCCACCA DNA 1: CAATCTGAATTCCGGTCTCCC DNA 2: TGGTGGCTACGACGGGATT",
    "binding signal": "0.00597 KA relative to UGCAUGU"
  },
  {
    "binder": "UGGAGAG (DNA:RNA) RNA: GGGAGACCGGAAUUCAGAUUGUCCUGGAGAGUUAAAUCCCGUCGUAGCCACCA DNA 1: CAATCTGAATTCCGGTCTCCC DNA 2: TGGTGGCTACGACGGGATT",
    "binding signal": "0.0249 KA relative to UGCAUGU"
  },
  {
    "binder": "UGGAUCC (DNA:RNA) RNA: GGGAGACCGGAAUUCAGAUUGUCCUGGAUCCUUAAAUCCCGUCGUAGCCACCA DNA 1: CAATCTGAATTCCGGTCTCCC DNA 2: TGGTGGCTACGACGGGATT",
    "binding signal": "0.0229 KA relative to UGCAUGU"
  },
  {
    "binder": "UGACACA (DNA:RNA) RNA: GGGAGACCGGAAUUCAGAUUGUCCUGACACAUUAAAUCCCGUCGUAGCCACCA DNA 1: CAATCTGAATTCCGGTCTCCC DNA 2: TGGTGGCTACGACGGGATT",
    "binding signal": "0.00643 KA relative to UGCAUGU"
  },
  {
    "binder": "UGUCUUG (DNA:RNA) RNA: GGGAGACCGGAAUUCAGAUUGUCCUGUCUUGUUAAAUCCCGUCGUAGCCACCA DNA 1: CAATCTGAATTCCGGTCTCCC DNA 2: TGGTGGCTACGACGGGATT",
    "binding signal": "0.0447 KA relative to UGCAUGU"
  },
  {
    "binder": "UGGAAUG (DNA:RNA) RNA: GGGAGACCGGAAUUCAGAUUGUCCUGGAAUGUUAAAUCCCGUCGUAGCCACCA DNA 1: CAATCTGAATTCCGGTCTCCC DNA 2: TGGTGGCTACGACGGGATT",
    "binding signal": "0.0953 KA relative to UGCAUGU"
  },
  {
    "binder": "UGGAUCU (DNA:RNA) RNA: GGGAGACCGGAAUUCAGAUUGUCCUGGAUCUUUAAAUCCCGUCGUAGCCACCA DNA 1: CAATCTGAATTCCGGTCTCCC DNA 2: TGGTGGCTACGACGGGATT",
    "binding signal": "0.0236 KA relative to UGCAUGU"
  },
  {
    "binder": "CAAUGUA (DNA:RNA) RNA: GGGAGACCGGAAUUCAGAUUGUCCCAAUGUAUUAAAUCCCGUCGUAGCCACCA DNA 1: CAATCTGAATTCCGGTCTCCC DNA 2: TGGTGGCTACGACGGGATT",
    "binding signal": "0.00174 KA relative to UGCAUGU"
  },
  {
    "binder": "CCAUCUC (DNA:RNA) RNA: GGGAGACCGGAAUUCAGAUUGUCCCCAUCUCUUAAAUCCCGUCGUAGCCACCA DNA 1: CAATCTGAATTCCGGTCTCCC DNA 2: TGGTGGCTACGACGGGATT",
    "binding signal": "0.00486 KA relative to UGCAUGU"
  },
  {
    "binder": "GUUAGAA (DNA:RNA) RNA: GGGAGACCGGAAUUCAGAUUGUCCGUUAGAAUUAAAUCCCGUCGUAGCCACCA DNA 1: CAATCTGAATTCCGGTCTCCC DNA 2: TGGTGGCTACGACGGGATT",
    "binding signal": "0.0142 KA relative to UGCAUGU"
  },
  {
    "binder": "UGCUUUU (DNA:RNA) RNA: GGGAGACCGGAAUUCAGAUUGUCCUGCUUUUUUAAAUCCCGUCGUAGCCACCA DNA 1: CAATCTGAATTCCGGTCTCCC DNA 2: TGGTGGCTACGACGGGATT",
    "binding signal": "0.0211 KA relative to UGCAUGU"
  }
]
